This collection of values is drawn from patent US12642870B2.

test: Particle size and PDI of hand-mixed mRNA or DNA LNPs; assay type: physicochemical; conditions: hand-mixed DNA LNPs: compound/DOPE/Cholesterol/DMG-PEG2000 38/50/10.0/2.0, lipid:DNA 45:1
PARAMETER MEASURED: PDI DNA
// return just the number, without any unit appended

For orientation, consider the following solved cases.
- MOLECULE: "CC(C)C(CCC1CCC(C(=O)OCCCCCCCCCCCCOC(=O)C2CCC(CCC(SCCN(C)C)C(C)C)C(SCCN(C)C)C2)CC1SCCN(C)C)SCCN(C)C (centres unmarked)"
  PDI DNA: 0.201
- MOLECULE: "CC(C)C(CCC1CCC(C(=O)OCCCCCCOC(=O)C2CCC(CCC(SCCN(C)C)C(C)C)C(SCCN(C)C)C2)CC1SCCN(C)C)SCCN(C)C (centres unmarked)"
  PDI DNA: 0.272

Input CC(C)C(CCC1CCC(C(=O)OCCCCCCCCCCCCCCCCCCCCOC(=O)C2CCC(CCC(SCCN(C)C)C(C)C)C(SCCN(C)C)C2)CC1SCCN(C)C)SCCN(C)C (centres unmarked) , output reported PDI DNA.
0.277

Input CC(C)C(CCC1CCC(C(=O)OCCCCCCSCCCCCCCCSCCCCCCOC(=O)C2CCC(CCC(SCCN(C)C)C(C)C)C(SCCN(C)C)C2)CC1SCCN(C)C)SCCN(C)C (centres unmarked) , output reported PDI DNA.
0.230

Input CC(C)C(CCC(C)C(CCC1CCC(C(=O)OCCCCCCSCCCCCCCCSCCCCCCOC(=O)C2CCC(CCC(SCCN(C)C)C(C)CCC(SCCN(C)C)C(C)C)C(SCCN(C)C)C2)CC1SCCN(C)C)SCCN(C)C)SCCN(C)C (centres unmarked) , output reported PDI DNA.
0.189

Input CC(C)C(CCC(C)C(CCC1CCC(C(=O)OCCCCCCCCCCCCOC(=O)C2CCC(CCC(SCCN(C)C)C(C)CCC(SCCN(C)C)C(C)C)C(SCCN(C)C)C2)CC1SCCN(C)C)SCCN(C)C)SCCN(C)C (centres unmarked) , output reported PDI DNA.
0.366

Input CC(C)C(CCC(C)C(CCC1CCC(C(=O)OCCCCCCCCCCCCCCCCCCCCOC(=O)C2CCC(CCC(SCCN(C)C)C(C)CCC(SCCN(C)C)C(C)C)C(SCCN(C)C)C2)CC1SCCN(C)C)SCCN(C)C)SCCN(C)C (centres unmarked) , output reported PDI DNA.
0.251

Input CC(C)C(CCC(C)C(CCC1CCC(C(=O)OCCCCCCOC(=O)C2CCC(CCC(SCCN(C)C)C(C)CCC(SCCN(C)C)C(C)C)C(SCCN(C)C)C2)CC1SCCN(C)C)SCCN(C)C)SCCN(C)C (centres unmarked) , output reported PDI DNA.
0.403

----------
assay: Physical characterisation of mRNA-containing LNPs (DLS, NTA, zeta potential); type: physicochemical; conditions: Fluc mRNA LNPs: compound/DOPE/Cholesterol/DMG-PEG2000 41.44/45.85/10/2.7, lipid:RNA 40:1 (w/w)
Listed below: Zeta Potential (mV) values for each entry.
Quick note: give the figure in mV, leave out the unit.

- COMPOUND: "CC(C)C(CCC(C)C(CCC1CCC(C(=O)NC2CCC(CC3CCC(NC(=O)C4CCC(CCC(SCCN(C)C)C(C)CCC(SCCN(C)C)C(C)C)C(SCCN(C)C)C4)CC3)CC2)CC1SCCN(C)C)SCCN(C)C)SCCN(C)C (stereo not shown)"
  PARAMETER MEASURED: "Zeta Potential (mV)"
  REPORTED: 0.18
- COMPOUND: "CC(C)C(CCC(C)C(CCC1CCC(C(=O)NCCCCCCNC(=O)C2CCC(CCC(SCCN(C)C)C(C)CCC(SCCN(C)C)C(C)C)C(SCCN(C)C)C2)CC1SCCN(C)C)SCCN(C)C)SCCN(C)C (stereo not shown)"
  PARAMETER MEASURED: "Zeta Potential (mV)"
  REPORTED: 1.41

Input CC(C)C(CCC1CCC(C(=O)NCCCCCCNC(=O)C2CCC(CCC(SCCN(C)C)C(C)C)C(SCCN(C)C)C2)CC1SCCN(C)C)SCCN(C)C (stereo not shown) , output reported Zeta Potential (mV).
−0.19

Input CC(C)C(CCC(C)C(CCC1CC2C(=O)N(c3ccc(N4C(=O)C5CC(CCC(SCCN(C)C)C(C)CCC(SCCN(C)C)C(C)C)C(SCCN(C)C)CC5C4=O)cc3)C(=O)C2CC1SCCN(C)C)SCCN(C)C)SCCN(C)C (stereo not shown) , output reported Zeta Potential (mV).
−0.29
